# Lookup of reported Population Healthy Nuclei (%) keyed by entry
Tested on: Fibroblast
Protocol description: Multiplex assay against human fibroblast
Assay type: toxicity, cell-based
Experimental setup: 24 h, 1 µM, compound concentration 1 uM, replicate 2
Please give a number only; it is taken to be in %.

// known answers, use as guide
# Molecule, Tested system, Population Healthy Nuclei (%)
data = [
    ("O=C1COc2nccc(-c3ccccc3F)c2CN1Cc1cc(C(F)(F)F)cc(C(F)(F)F)c1", "Fibroblast", 58),
    ("Oc1c(CN2CCN(c3ccccn3)CC2)cc(Cl)c2cccnc12", "Fibroblast", 56),
    ("CCCn1c(=O)c2[nH]c(C3CCCC3)nc2n(CCC)c1=O", "Fibroblast", 48),
    ("CN1CCN2c3ncccc3Cc3ccccc3C2C1 (stereo not given) [MIRTAZAPINE]", "Fibroblast", 50),
]

query: Sample Cc1ccc(F)cc1C(=O)Nc1ccc(C(=O)N2Cc3cccn3Cc3ccccc32)c(Cl)c1 [LIXIVAPTAN] — what was its Population Healthy Nuclei (%)?
result: 43

###

Test system: U2OS
Protocol description: Multiplex assay against U2OS
Format: toxicity, cell-based
Experimental setup: human, 48 h, 1 µM, compound concentration 1 uM, replicate 2
Observation type: Total Cell Count

// known answers, use as guide
# Compound, Observation type, Result
records = [
    ("COc1cc(C(=O)N(CCCc2ccccc2)Cc2ccc(CC(=O)O)cc2)cc(OC)c1C", "Total Cell Count", 159),
    ("N[C@@]1(C(=O)O)CO[C@H]2[C@H](C(=O)O)[C@H]21 [LY-379268]", "Total Cell Count", 178),
    ("CSc1ccccc1N1CCN(CCCCCC(=O)NC2CCCc3ccccc32)CC1.Cl (centres undefined)", "Total Cell Count", 137),
    ("Cc1ccc(C(C)(O)c2nc3ccccc3s2)c(C)c1 (centres undefined)", "Total Cell Count", 215),
    ("N#Cc1c(N)nc(SCc2csc(-c3ccc(Cl)cc3)n2)c(C#N)c1-c1ccc(OCCO)cc1 [CAPADENOSON]", "Total Cell Count", 220),
    ("CCCn1c(=O)c2[nH]c(C3CCCC3)nc2n(CCC)c1=O", "Total Cell Count", 196),
    ("CN1CCN(c2nc3cc(C(F)(F)F)ccc3n3cccc23)CC1.O=C(O)/C=C\\C(=O)O.O=C(O)/C=C\\C(=O)O", "Total Cell Count", 187),
    ("C[C@@H]1C[C@H]2[C@@H]3CCC4=CC(=O)C=C[C@]4(C)[C@@]3(F)[C@@H](O)C[C@]2(C)[C@@]1(O)C(=O)CO [DEXAMETHASONE]", "Total Cell Count", 186),
]

Then this compound:
query: Sample Cc1ccc(/C(=C\CN2CCCC2)c2ccccn2)cc1 [TRIPROLIDINE] — what was its Total Cell Count?
result: 209

###

System: U2OS
Protocol description: Multiplex assay against U2OS
Assay type: toxicity, cell-based
Experimental setup: human, 24 h, 10 µM, compound concentration 10 uM, replicate 2
Observation type: Population Normal (%)
Please give a number only; it is taken to be in %.

// known answers, use as guide
# Compound, Tested system, Population Normal (%)
data = [
    ("N#Cc1c(N)nc(SCc2csc(-c3ccc(Cl)cc3)n2)c(C#N)c1-c1ccc(OCCO)cc1 [CAPADENOSON]", "U2OS", 97),
    ("C[C@H]1[C@H]2CC[C@H]3[C@@H]4CC=C5C[C@@H](N(C)C)CC[C@]5(C)[C@H]4CC[C@]23CN1C [CONESSINE]", "U2OS", 95),
    ("C[C@@H]1C[C@H]2[C@@H]3CCC4=CC(=O)C=C[C@]4(C)[C@@]3(F)[C@@H](O)C[C@]2(C)[C@@]1(O)C(=O)CO [DEXAMETHASONE]", "U2OS", 99),
    ("CC1(COc2ccc3c(c2)ncn3-c2ccc3cccc(N4CCC(N)CC4)c3n2)COC1 [CRENOLANIB]", "U2OS", 63),
]

query: Sample Cc1ccc(C(C)(O)c2nc3ccccc3s2)c(C)c1 (centres undefined) — what was its Population Normal (%)?
result: 95

query: Sample `CN(C)CCCc1cc(C(=O)Nc2ccc(-c3ccncc3)cc2)ccc1O.Cl.Cl` — what was its Population Normal (%)?
result: 100

query: Sample `CN(C)c1ccnc2sc3c(=O)n(N4CCCCCC4)cnc3c12` — what was its Population Normal (%)?
result: 96

query: Sample CC(=O)NCCc1c(Cc2ccccc2)[nH]c2ccccc12 [LUZINDOLE] — what was its Population Normal (%)?
result: 99

query: Sample Cc1ccccc1C(=O)Nc1ccc(C(=O)N2CCCC(N(C)C)c3ccccc32)cc1.Cl (centres undefined) — what was its Population Normal (%)?
result: 94

###

Test system: Fibroblast
Protocol description: Multiplex assay against human fibroblast
Type: toxicity, cell-based
Experimental setup: 48 h, 10 µM, compound concentration 10 uM, replicate 2
# Lookup of reported Population Fragmented Nuclei (%) keyed by entry
Please give a number only; it is taken to be in %.

# Compound, Unit text, Quantitative readout
rows = [
    ("CCOc1c2c(c(OCC)c3ncccc13)CN(c1ccc(CS(=O)(=O)NC(=O)Cc3ccccc3OC)cc1C)C2=O", "%", 34),
    ("COc1c(C)cc(NC(=O)c2nn(Cc3ccc(F)cc3)c3c2CN(C(=O)c2ccc[nH]2)C[C@]3(C)C(N)=O)cc1C", "%", 41),
    ("CC(C)(C)c1ccc(S(=O)(=O)Nc2ccc(Cl)cc2C(=O)c2cc[n+]([O-])cc2)cc1", "%", 42),
    ("COc1cc(C(=O)N(CCCc2ccccc2)Cc2ccc(CC(=O)O)cc2)cc(OC)c1C", "%", 38),
    ("CNC[C@H](O)c1ccc(O)c(O)c1 [EPINEPHRINE]", "%", 50),
    ("O=C(O)Cc1ccccc1Nc1c(Cl)cccc1Cl", "%", 35),
]

query: Sample CCCN1CCC[C@@H]2Cc3n[nH]cc3C[C@H]21.Cl [QUINPIROLE HYDROCHLORIDE] — what was its Population Fragmented Nuclei (%)?
result: 43

query: Sample `Oc1c(CN2CCN(c3ccccn3)CC2)cc(Cl)c2cccnc12` — what was its Population Fragmented Nuclei (%)?
result: 34

###

# Lookup of reported Population Fragmented Nuclei (%) keyed by entry
Test system: Fibroblast
Protocol description: Multiplex assay against human fibroblast
Assay type: toxicity, cell-based
Experimental setup: 48 h, 10 µM, compound concentration 10 uM, replicate 1
Please give a number only; it is taken to be in %.

// known answers, use as guide
# Compound, Population Fragmented Nuclei (%)
measured = [
    ("CSCC[C@H](NC=O)C(=O)N[C@@H](CC(C)C)C(=O)N[C@@H](Cc1ccccc1)C(=O)O", 18),
    ("CNC[C@H](O)c1ccc(O)c(O)c1 [EPINEPHRINE]", 20),
    ("C[C@@H]1C[C@H]2[C@@H]3CCC4=CC(=O)C=C[C@]4(C)[C@@]3(F)[C@@H](O)C[C@]2(C)[C@@]1(O)C(=O)CO [DEXAMETHASONE]", 22),
    ("O=C(NCCO)c1cccc(-c2cc(Nc3ccc(OC(F)(F)F)cc3)ncn2)c1", 35),
    ("COc1ccc2c(c1)C(C(=O)N(Cc1ccc(N(C)C)cc1)c1ccc(C(C)C)cc1)CCC2.Cl (centres undefined)", 21),
    ("Cc1nc2ccc(Oc3ccc(F)cc3)cc2c(=O)n1C[C@H]1CCCN(C(C)C)C1.Cl", 23),
]

query: Recorded Population Fragmented Nuclei (%) for `CC[C@H]1OC(=O)[C@H](C)[C@@H](O[C@H]2C[C@@](C)(OC)[C@@H](O)[C@H](C)O2)[C@H](C)[C@@H](O[C@@H]2O[C@H](C)C[C@H](N(C)C)[C@H]2O)[C@@]2(C)CC(C)=C(O2)[C@H](C)[C@@H](O)[C@]1(C)O` with Fibroblast, please?
result: 24

query: Recorded Population Fragmented Nuclei (%) for CC(C)(C)c1ccc(S(=O)(=O)Nc2ccc(Cl)cc2C(=O)c2cc[n+]([O-])cc2)cc1 [VERCIRNON] with Fibroblast, please?
result: 22

query: Recorded Population Fragmented Nuclei (%) for `O=C1COc2nccc(-c3ccccc3F)c2CN1Cc1cc(C(F)(F)F)cc(C(F)(F)F)c1` with Fibroblast, please?
result: 20

query: Recorded Population Fragmented Nuclei (%) for CN1CCN2c3ncccc3Cc3ccccc3C2C1 (centres undefined) [MIRTAZAPINE] with Fibroblast, please?
result: 17

query: Recorded Population Fragmented Nuclei (%) for CC(=O)NCCc1c(Cc2ccccc2)[nH]c2ccccc12 [LUZINDOLE] with Fibroblast, please?
result: 19

query: Recorded Population Fragmented Nuclei (%) for COc1cc(NC(=O)CCN2CCC(OC(=O)Nc3ccccc3-c3ccccc3)CC2)c(Cl)cc1CNC[C@H](O)c1ccc(O)c2[nH]c(=O)ccc12 [BATEFENTEROL] with Fibroblast, please?
result: 22

query: Recorded Population Fragmented Nuclei (%) for C[C@H]1[C@H]2CC[C@H]3[C@@H]4CC=C5C[C@@H](N(C)C)CC[C@]5(C)[C@H]4CC[C@]23CN1C [CONESSINE] with Fibroblast, please?
result: 26

query: Recorded Population Fragmented Nuclei (%) for `Oc1c(CN2CCN(c3ccccn3)CC2)cc(Cl)c2cccnc12` with Fibroblast, please?
result: 31

query: Recorded Population Fragmented Nuclei (%) for N[C@@]1(C(=O)O)CO[C@H]2[C@H](C(=O)O)[C@H]21 [LY-379268] with Fibroblast, please?
result: 14
